Kindly supply the reported EC50 values for the records listed here.
System: Cisd2 promoter with firefly luciferase reporter (HEK293-CISD2)
Assay Comment: Cisd2-luciferase reporter assay
Format: cell-based
Assay Conditions: Homo sapiens; HEK293-CISD2 cells, 24 h incubation, luciferase activity

Prompt: Could you please provide reported EC50 for `COC(=O)c1c(NC(C)=O)sc(C(=O)Nc2ccc(C)cc2C)c1C` ? Thanks!
Response: 1 to 10 µM

Prompt: Could you please provide reported EC50 for `COC(=O)c1c(N)sc(C(=O)Nc2ccccc2OC)c1C` ? Thanks!
Response: 1 to 10 µM

Prompt: Could you please provide reported EC50 for `Cc1ccc(NC(=O)c2sc(N)c(C(=O)OC(C)C)c2C)c(C)c1` ? Thanks!
Response: 1 to 10 µM

Prompt: Could you please provide reported EC50 for `COC(=O)c1c(N)sc(C(=O)Nc2ccc(C)cc2C)c1Br` ? Thanks!
Response: < 1 µM

Prompt: Could you please provide reported EC50 for `COC(=O)c1c(N)sc(C(=O)Cc2ccc(C)cc2C)c1C` ? Thanks!
Response: 1 to 10 µM

Prompt: Could you please provide reported EC50 for `CC(=O)c1c(N)sc(C(=O)Nc2ccc(C)cc2C)c1C` ? Thanks!
Response: < 1 µM

Prompt: Could you please provide reported EC50 for `CCOC(=O)c1c(N)sc(C(=O)Nc2ccc(C)cc2C)c1C` ? Thanks!
Response: < 1 µM

Prompt: Could you please provide reported EC50 for `COC(=O)c1c(N)sc(C(=O)Nc2ccc(O)cc2)c1C` ? Thanks!
Response: < 1 µM

Prompt: Could you please provide reported EC50 for `COC(=O)c1c(N)sc(C(=O)Nc2cccc(C)c2)c1C` ? Thanks!
Response: < 1 µM

Prompt: Could you please provide reported EC50 for `Cc1ccc(NC(=O)c2sc(N)c(C#N)c2C)c(C)c1` ? Thanks!
Response: 1 to 10 µM

Prompt: Could you please provide reported EC50 for `Cc1ccc(NC(=O)c2sc(N)c(C(=O)CO)c2C)c(C)c1` ? Thanks!
Response: < 1 µM

Prompt: Could you please provide reported EC50 for `COC(=O)c1c(N)sc(C(=O)Nc2nccs2)c1C` ? Thanks!
Response: < 1 µM

Prompt: Could you please provide reported EC50 for `COC(=O)c1c(N)sc(C(=O)Nc2ccc(N(C)C)cc2)c1C` ? Thanks!
Response: < 1 µM

Prompt: Could you please provide reported EC50 for `Cc1ccc(NC(=O)c2sc(N)c(C(=O)O)c2C)c(C)c1` ? Thanks!
Response: < 1 µM

Prompt: Could you please provide reported EC50 for `Cc1ccc(NC(=O)c2sc(N)c(C(N)=O)c2C)c(C)c1` ? Thanks!
Response: < 1 µM

Prompt: Could you please provide reported EC50 for `COC(=O)c1c(N)sc(C(=O)Nc2ccc(C)cc2)c1C` ? Thanks!
Response: < 1 µM

Prompt: Could you please provide reported EC50 for `CCOC(=O)c1c(N)sc(C(=O)Nc2ccc(F)cc2)c1C` ? Thanks!
Response: < 1 µM

Prompt: Could you please provide reported EC50 for `Cc1ccc(NC(=O)c2sc(N)c(C(=O)NCC#N)c2C)c(C)c1` ? Thanks!
Response: 1 to 10 µM

Prompt: Could you please provide reported EC50 for `COC(=O)c1c(N)sc(C(=O)Nc2cc(OC)c(OC)c(OC)c2)c1C` ? Thanks!
Response: 1 to 10 µM

Prompt: Could you please provide reported EC50 for `COC(=O)c1c(N)sc(C(=O)Nc2ccc(F)cc2)c1C` ? Thanks!
Response: < 1 µM
